Reference source: patent US20110092476A1

# TARGET DESC: P2X7 receptor (Homo sapiens)
# Construct: host or cells: THP-1 cells differentiated with LPS and IFN-γ
# Sequence (Q99572 1-595): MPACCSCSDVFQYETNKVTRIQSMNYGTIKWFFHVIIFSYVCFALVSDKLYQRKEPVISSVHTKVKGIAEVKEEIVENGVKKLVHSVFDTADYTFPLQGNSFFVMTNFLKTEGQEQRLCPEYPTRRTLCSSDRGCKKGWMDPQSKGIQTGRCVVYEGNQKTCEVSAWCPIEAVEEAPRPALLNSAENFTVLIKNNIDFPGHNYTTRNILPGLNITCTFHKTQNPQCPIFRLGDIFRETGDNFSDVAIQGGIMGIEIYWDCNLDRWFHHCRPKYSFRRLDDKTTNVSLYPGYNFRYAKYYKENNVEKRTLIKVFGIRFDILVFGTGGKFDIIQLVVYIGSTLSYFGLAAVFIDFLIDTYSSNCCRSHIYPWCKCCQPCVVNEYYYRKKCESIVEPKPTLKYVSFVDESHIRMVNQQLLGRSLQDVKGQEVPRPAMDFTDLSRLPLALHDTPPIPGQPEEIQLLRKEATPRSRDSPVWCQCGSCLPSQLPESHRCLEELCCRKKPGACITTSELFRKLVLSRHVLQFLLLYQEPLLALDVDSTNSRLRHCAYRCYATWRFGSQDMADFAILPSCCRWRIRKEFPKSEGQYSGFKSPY
# METHOD SUMMARY: IL-1β release assay in differentiated THP-1 cells stimulated with BzATP (Example 9)
# Format: cell-based
# MEASUREMENT PARAMETERS: 0.3 μM compound; differentiated THP-1 cells, BzATP 250 uM; "+" symbols; read-out: IL-1β % Inhib. @ 0.3 or 0.1 uM
VALUE TYPE: inhibition at 0.3 µM

In [3]: df
Out[3]:
                           structure_smiles  readout_value
0  CC(=O)NCCn1ccc2c(NC(=O)Cc3ccc(Cl)c(C(F)(F)F)c3)cccc2c1=O          > 76%
1  CC(C)(CO)n1ccc2c(NC(=O)Cc3ccc(Cl)c(F)c3)cccc2c1=O      51 to 75%
2  C[C@H](CO)n1ccc2c(NC(=O)Cc3ccc(C(F)(F)F)cc3)cccc2c1=O          > 76%
3  C[C@H](CO)n1ccc2c(NC(=O)Cc3ccc(Cl)c(Cl)c3)c(Cl)ccc2c1=O          > 76%

* * *

# METHOD SUMMARY: Pharmacokinetic evaluation following intravenous and oral administration in rats (oral bioavailability)
# Format: in vivo, rat
# MEASUREMENT PARAMETERS: male Sprague-Dawley rats, PO 1 to 5 mg/kg vs IV 1 mg/kg, AUCinf dose-normalized
# Protocol: Male Sprague-Dawley rats are acclimatized for at least 24 hours prior to experiment initiation. During acclimation period, all animals receive food and water ad libitum. […] The determined body weight is used to calculate the dose volume for each animal. […] PO rats are typically dosed through oral gavage following the same dose volume formula as IV to achieve a dose level of 1 to 5 mg/kg. […] The resulting plasma samples are then analyzed by liquid chromatography-tandem mass spectrometry. […]
VALUE TYPE: Oral Bioavailability F (%)

In [3]: df
Out[3]:
                                    compound   readout_value
 0  C[C@H](CO)n1ccc2c(NC(=O)Cc3ccc(C(F)(F)F)c(F)c3)cccc2c1=O [Compound 335]   ++ (26-50% F)
 1  CC(C(=O)Nc1cccc2c(=O)n([C@H](C)C(N)=O)ccc12)c1ccc(Cl)c(Cl)c1 (stereo partly shown) [Compound 254]     + (0-25% F)
 2  C[C@H](C(N)=O)n1ccc2c(NC(=O)Cc3ccc(C(F)(F)F)cc3)c(Cl)ccc2c1=O [Compound 316]   ++ (26-50% F)
 3  C[C@H](C(=O)Nc1cccc2c(=O)n([C@H](C)C(N)=O)ccc12)c1ccc(Cl)c(Cl)c1 [Compound 268]   ++ (26-50% F)
 4  CC(C(=O)Nc1cccc2c(=O)n([C@H](C)C(N)=O)ccc12)c1ccc(Cl)cc1 (stereo partly shown) [Compound 247]   ++ (26-50% F)
 5  C[C@H](C(N)=O)n1ccc2c(NC(=O)Cc3ccc(Cl)c(C(F)(F)F)c3)cccc2c1=O [Compound 238]     + (0-25% F)
 6  C[C@H](C(N)=O)n1ccc2c(NC(=O)Cc3ccc(Cl)cc3)cccc2c1=O [Compound 256]     + (0-25% F)
 7  C[C@@H](C(N)=O)n1ccc2c(NC(=O)Cc3ccc(Cl)c(Cl)c3)cccc2c1=O [Compound 236]     + (0-25% F)
 8  C[C@H](CO)n1ccc2c(NC(=O)Cc3ccc(C(F)(F)F)cc3)cccc2c1=O [Compound 319]  +++ (51-75% F)
 9  O=C(Cc1ccc(Cl)c(C(F)(F)F)c1)Nc1cccc2c(=O)n(C(CO)CO)ccc12 [Compound 81]     + (0-25% F)
10  Cc1ccc2c(=O)n([C@H](C)CO)ccc2c1NC(=O)Cc1ccc(F)c(C(F)(F)F)c1 [Compound 394]   ++ (26-50% F)
11  Cc1ccc2c(=O)n([C@H](C)CO)ccc2c1NC(=O)Cc1ccc(C(F)(F)F)c(F)c1 [Compound 393]  +++ (51-75% F)
12  CC(C)(CO)n1ccc2c(NC(=O)Cc3ccc(Cl)c(C(F)(F)F)c3)cccc2c1=O [Compound 369]     + (0-25% F)
13  C[C@H](CO)n1ccc2c(NC(=O)Cc3ccc(Cl)c(Cl)c3)c(Cl)ccc2c1=O [Compound 376]   ++ (26-50% F)
14  C[C@H](C(N)=O)n1ccc2c(NC(=O)[C@H](C)c3ccc(Cl)c(Cl)c3)cccc2c1=O [Compound 269]   ++ (26-50% F)
15  C[C@H](C(N)=O)n1ccc2c(NC(=O)Cc3cccc(C(F)(F)F)c3F)cccc2c1=O [Compound 285]   ++ (26-50% F)

* * *

# METHOD SUMMARY: Pharmacokinetic evaluation following intravenous and oral administration in rats (oral bioavailability)
# Format: in vivo, rat
# MEASUREMENT PARAMETERS: male Sprague-Dawley rats, PO 1 to 5 mg/kg vs IV 1 mg/kg, AUCinf dose-normalized
# Protocol: Male Sprague-Dawley rats are acclimatized for at least 24 hours prior to experiment initiation. During acclimation period, all animals receive food and water ad libitum. […] The determined body weight is used to calculate the dose volume for each animal. […] PO rats are typically dosed through oral gavage following the same dose volume formula as IV to achieve a dose level of 1 to 5 mg/kg. […] The resulting plasma samples are then analyzed by liquid chromatography-tandem mass spectrometry. […]
VALUE TYPE: Oral Bioavailability F (%)

>>> print(df.to_string())
                                   compound  readout_value
0  CC(C(=O)Nc1cccc2c(=O)n([C@H](C)C(N)=O)ccc12)c1ccc(Cl)c(C(F)(F)F)c1 (some centres unmarked) [Compound 267]  ++ (26-50% F)
1  C[C@H](C(=O)Nc1cccc2c(=O)n([C@@H](C)C(N)=O)ccc12)c1ccc(Cl)cc1 [Compound 265]  ++ (26-50% F)
2  C[C@H](CO)n1ccc2c(NC(=O)Cc3ccc(Cl)c(C(F)(F)F)c3)cccc2c1=O [Compound 362]  ++ (26-50% F)
3  C[C@H](CO)n1ccc2c(NC(=O)Cc3cccc(C(F)(F)F)c3F)cccc2c1=O [Compound 324]  ++ (26-50% F)
4  C[C@H](CO)n1ccc2c(NC(=O)Cc3ccc(C(F)(F)F)c(F)c3)c(Cl)ccc2c1=O [Compound 375]  ++++ (>75% F)
5  O=C(Cc1ccc(Cl)cc1)Nc1cccc2c(=O)n(CCO)ccc12 [Compound 4]  ++++ (>75% F)
6  C[C@H](CO)n1ccc2c(NC(=O)Cc3ccc(Cl)c(F)c3)cccc2c1=O [Compound 330]  ++++ (>75% F)

* * *

# TARGET DESC: P2X7 receptor (Homo sapiens, UniProt Q99572)
# Construct: host or cells: THP-1 cells differentiated with LPS and IFN-γ
# METHOD SUMMARY: IL-1β release assay in differentiated THP-1 cells stimulated with BzATP (Example 9)
# Assay type: cell-based
# MEASUREMENT PARAMETERS: 0.3 μM compound; differentiated THP-1 cells, BzATP 250 uM; "+" symbols; read-out: IL-1β % Inhib. @ 0.3 or 0.1 uM
Reported inhibition at 0.3 µM is given for each of the following molecules.
VALUE TYPE: inhibition at 0.3 µM

>>> df
                                    molecule  readout_value
 0  C[C@@H](C(N)=O)n1ccc2c(NC(=O)Cc3ccc(Cl)cc3C(F)(F)F)cccc2c1=O          > 76%
 1  CC(C(=O)Nc1cccc2c(=O)n([C@@H](C)C(N)=O)ccc12)c1ccc(Cl)cc1 (stereo partly shown)          > 76%
 2  C[C@@H](C(N)=O)n1ccc2c(NC(=O)Cc3ccc(C(F)(F)F)c(F)c3)cccc2c1=O          > 76%
 3  C[C@H](C(=O)Nc1cccc2c(=O)n([C@H](C)CO)ccc12)c1ccc(Cl)c(Cl)c1          > 76%
 4  C[C@@H](C(N)=O)n1ccc2c(NC(=O)Cc3ccc(Cl)nc3)cccc2c1=O       0 to 25%
 5  C[C@H](C(N)=O)n1ccc2c(NC(=O)Cc3cccc(OC(F)(F)F)c3)cccc2c1=O       0 to 25%
 6  COc1ccc2c(=O)n([C@H](C)C(N)=O)ccc2c1NC(=O)Cc1ccc(C(F)(F)F)cc1          > 76%
 7  C[C@H](CO)n1ccc2c(NC(=O)Cc3ccc(Cl)c(F)c3)cccc2c1=O          > 76%
 8  C[C@H](C(N)=O)n1ccc2c(NC(=O)Cc3ccccn3)cccc2c1=O       0 to 25%
 9  O=C(Cc1ccc(Cl)c(Cl)c1)Nc1cccc2c(=O)n(C[C@H]3CCCN3)ccc12          > 76%
10  O=C(Cc1ccc(Cl)c(C(F)(F)F)c1)Nc1cccc2c(=O)n(C[C@H]3CCCN3)ccc12          > 76%
11  Cc1ccc(CC(=O)Nc2cccc3c(=O)n([C@H](C)C(N)=O)ccc23)cc1F          > 76%
12  CC(C)C[C@H](CO)n1ccc2c(NC(=O)Cc3ccc(Cl)c(Cl)c3)cccc2c1=O          > 76%
13  NCC(CCl)Cn1ccc2c(NC(=O)Cc3ccc(Cl)c(C(F)(F)F)c3)cccc2c1=O (stereo not shown)          > 76%
14  O=C(Cc1ccc(F)c(Cl)c1)Nc1cccc2c(=O)n(CCO)ccc12          > 76%
15  CC(C)[C@H](C(=O)O)n1ccc2c(NC(=O)[C@@H](C)c3ccc(Cl)cc3)cccc2c1=O      51 to 75%
